Values compiled from patent US8193252B1.

- Tested on: pregnant guinea pigs
- assay-explanation: Abortifacient / labor inducing activity in pregnant guinea pigs
- Assay type: in vivo, guinea pig
- conditions-used: s.c.; treatment day 43-44 of pregnancy, autopsy day 50
quantity: abortifacient activity ED50, guinea pig

Use the examples below as a reference point.
INSERT INTO measurements (compound, quantity, value_observed) VALUES
  ('COCC1(O)CCC2C3CCC4=CC(=O)CCC4=C3C(c3ccc(C=NO)cc3)CC21C (stereo not drawn)', 'abortifacient activity ED50, guinea pig', '>100 mg/animal/day'),
  ('CC#C[C@]1(O)CC[C@H]2[C@@H]3CCC4=CC(=O)CCC4=C3[C@@H](c3ccc(N(C)C)cc3)C[C@@]21C [RU 486, mifepristone, reference compound]', 'abortifacient activity ED50, guinea pig', '3.8 mg/animal/day'),
  ('CCSC(=O)O/N=C/c1ccc([C@H]2C[C@@]3(C)[C@@H](CC[C@]3(COC)OC)[C@@H]3CCC4=CC(=O)CCC4=C32)cc1', 'abortifacient activity ED50, guinea pig', '>>100 mg/animal/day'),
  ('COC[C@]1(OC)CC[C@H]2[C@@H]3CCC4=CC(=O)CCC4=C3[C@@H](c3ccc(/C=N/O)cc3)C[C@@]21C', 'abortifacient activity ED50, guinea pig', '>100 mg/animal/day');

Shift focus to the following entry.
Lab note: need abortifacient activity ED50, guinea pig with pregnant guinea pigs for entry "CCNC(=O)O/N=C/c1ccc([C@H]2C[C@@]3(C)[C@@H](CC[C@]3(COC)OC)[C@@H]3CCC4=CC(=O)CCC4=C32)cc1" , please look it up.
20 mg/animal/day
